Where do these numbers come from? They come from paper PMC10600239.

# assay procedure: Phase 1 first-in-human study (NCT04178902): pharmacokinetics
# Assay type: in vivo
# measurement context: human, in vivo, 0.53 mg/kg, Cycle 1 Day 15, DOSE_MGKG 0.53, cohort 3, PKTIME 0.333333; read-out: CONC_NGML
measured parameter: concentration at 20 min (ng/mL)
The reply should contain only the number, in ng/mL.

# compound Cc1c(Cl)c2c(Cl)c(C)c1-c1c(-c3ccc(F)cc3)sc3ncnc(c13)O[C@@H](C(=O)O)Cc1cc(ccc1OCc1ccnc(-c3ccc(OC[C@H]4COCCO4)cc3)n1)OC[C@@H](CN1CCN(C)CC1)O2 [ABBV-467] ; its concentration at 20 min = 1370

====

# assay procedure: Phase 1 first-in-human study (NCT04178902): pharmacokinetics
# Assay type: in vivo
# measurement context: human, in vivo, 0.265 mg/kg, Cycle 1 Day 1, DOSE_MGKG 0.265, cohort 3, PKTIME 0.333333; read-out: CONC_NGML
measured parameter: concentration at 20 min (ng/mL)
Please respond with the number in ng/mL and leave the unit unwritten.

Cc1c(Cl)c2c(Cl)c(C)c1-c1c(-c3ccc(F)cc3)sc3ncnc(c13)O[C@@H](C(=O)O)Cc1cc(ccc1OCc1ccnc(-c3ccc(OC[C@H]4COCCO4)cc3)n1)OC[C@@H](CN1CCN(C)CC1)O2 [ABBV-467] has a reported concentration at 20 min of 904

====

# System: AMO-1 cells
# assay procedure: In vitro cell viability assay (CellTiter-Glo)
# Format: cell-based, human
# measurement context: read-out: AMO-1 EC50 (nM, 10% FBS); 10% FBS, 24 h continuous treatment
measured parameter: EC50 (nM)
Express the result in nM but write the number alone.

The recorded EC50 for entry Cc1c(Cl)c2c(Cl)c(C)c1-c1c(-c3ccc(F)cc3)sc3ncnc(c13)O[C@@H](C(=O)O)Cc1cc(ccc1OCc1ccnc(-c3ccc(OC[C@H]4COCCO4)cc3)n1)OC[C@@H](CN1CCN(C)CC1)O2 [ABBV-467] equals 0.16

====

# assay procedure: Phase 1 first-in-human study (NCT04178902): pharmacokinetics
# Format: in vivo
# measurement context: human, in vivo, 0.53 mg/kg, Cycle 1 Day 15, DOSE_MGKG 0.53, cohort 3, PKTIME 0.5; read-out: CONC_NGML
measured parameter: concentration at 0.5 h
Answer format: value, then unit.

Entry Cc1c(Cl)c2c(Cl)c(C)c1-c1c(-c3ccc(F)cc3)sc3ncnc(c13)O[C@@H](C(=O)O)Cc1cc(ccc1OCc1ccnc(-c3ccc(OC[C@H]4COCCO4)cc3)n1)OC[C@@H](CN1CCN(C)CC1)O2 [ABBV-467] — recorded concentration at 0.5 h = 1.86 µg/mL

====

# tested system: hERG (Homo sapiens, UniProt Q12809)
# Sequence (Q12809 whole entry): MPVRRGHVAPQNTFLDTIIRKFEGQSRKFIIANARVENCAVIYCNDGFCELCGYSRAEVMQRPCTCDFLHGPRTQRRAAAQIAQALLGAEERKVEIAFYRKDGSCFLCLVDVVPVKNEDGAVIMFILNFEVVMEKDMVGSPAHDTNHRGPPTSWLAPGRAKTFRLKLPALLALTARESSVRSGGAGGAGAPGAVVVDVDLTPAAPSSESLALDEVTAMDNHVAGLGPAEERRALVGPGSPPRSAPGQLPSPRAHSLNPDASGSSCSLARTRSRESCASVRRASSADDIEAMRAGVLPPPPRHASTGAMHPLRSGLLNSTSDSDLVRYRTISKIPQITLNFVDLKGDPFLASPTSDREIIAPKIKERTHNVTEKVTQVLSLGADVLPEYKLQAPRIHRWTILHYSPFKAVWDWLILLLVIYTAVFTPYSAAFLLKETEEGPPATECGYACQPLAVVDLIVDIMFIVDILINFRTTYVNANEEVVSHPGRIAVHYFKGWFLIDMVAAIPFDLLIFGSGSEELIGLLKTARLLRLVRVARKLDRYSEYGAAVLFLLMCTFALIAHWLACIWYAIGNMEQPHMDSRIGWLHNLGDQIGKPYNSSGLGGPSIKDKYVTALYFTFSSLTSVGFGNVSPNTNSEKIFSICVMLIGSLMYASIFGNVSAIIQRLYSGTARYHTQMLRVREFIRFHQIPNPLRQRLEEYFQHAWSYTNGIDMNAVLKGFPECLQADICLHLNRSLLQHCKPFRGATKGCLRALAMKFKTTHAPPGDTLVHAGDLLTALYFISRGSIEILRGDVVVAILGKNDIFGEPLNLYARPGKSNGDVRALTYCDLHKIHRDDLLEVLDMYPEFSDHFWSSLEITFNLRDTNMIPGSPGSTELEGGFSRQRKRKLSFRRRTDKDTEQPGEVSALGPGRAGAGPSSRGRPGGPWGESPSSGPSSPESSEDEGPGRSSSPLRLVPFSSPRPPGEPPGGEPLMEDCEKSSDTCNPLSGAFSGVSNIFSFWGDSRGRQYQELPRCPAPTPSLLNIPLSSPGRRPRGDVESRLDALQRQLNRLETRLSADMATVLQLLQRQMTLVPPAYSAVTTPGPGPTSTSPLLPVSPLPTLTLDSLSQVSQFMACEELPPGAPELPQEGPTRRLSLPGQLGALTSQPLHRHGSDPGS
# assay procedure: hERG current, in vitro
# Assay type: cell-based
# measurement context: read-out: hERG tail current IC50
measured parameter: IC50

The molecule Cc1c(Cl)c2c(Cl)c(C)c1-c1c(-c3ccc(F)cc3)sc3ncnc(c13)O[C@@H](C(=O)O)Cc1cc(ccc1OCc1ccnc(-c3ccc(OC[C@H]4COCCO4)cc3)n1)OC[C@@H](CN1CCN(C)CC1)O2 [ABBV-467] showed IC50 equal to > 20.3 µg/mL

====

# tested system: UniProtKB Q16548
# Sequence (Q16548 whole entry): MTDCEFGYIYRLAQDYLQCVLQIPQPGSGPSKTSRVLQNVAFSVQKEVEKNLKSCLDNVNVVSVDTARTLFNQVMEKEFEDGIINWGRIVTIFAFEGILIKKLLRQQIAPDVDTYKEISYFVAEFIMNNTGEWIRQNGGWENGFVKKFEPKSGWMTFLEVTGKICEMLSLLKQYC
# assay procedure: Time-resolved FRET binding assay
# measurement context: read-out: TR-FRET, Ki, nM BCL2-A1
# Description: Binding affinities for MCL-1, BCL-2, BCL-XL, BCL-W, and BCL2-A1 were determined using a time-resolved fluorescence resonance energy transfer (FRET) assay. […] Fluorescence was measured on the EnVision™ (Perkin Elmer) using a 340/35-nm excitation filter and 520/525- (F-Bak) and 495/510-nm (Tb-labeled anti-glutathione S-transferase [GST] antibody) emission filters. Dissociation constants were determined using Wang’s equation[35]. […]
measured parameter: Ki

// returns Ki for COc1ccccc1-c1nccc(COc2ccccc2CC(Oc2ncnc3sc(-c4ccc(F)cc4)c(-c4ccc(OCCN5CCN(C)CC5)c(Cl)c4C)c23)C(=O)O)n1 (stereo not shown) [Compound 1, reference compound] with UniProtKB Q16548; value = > 468 nM

====

# Tested on: DLD-1 cells
# assay procedure: In vitro cell viability assay (CellTiter-Glo)
# Type: cell-based, human
# measurement context: Homo sapiens, DLD-1, 24 h, read-out: DLD-1 EC50 (nM, 10% FBS), 10% FBS, 24 h continuous treatment
measured parameter: EC50 (nM)
All answers are understood in nM, so give the number only.

// EC50 value for COc1ccccc1-c1nccc(COc2ccccc2CC(Oc2ncnc3sc(-c4ccc(F)cc4)c(-c4ccc(OCCN5CCN(C)CC5)c(Cl)c4C)c23)C(=O)O)n1 (stereo not shown) [Compound 1, reference compound] : 4750

====

# assay procedure: Phase 1 first-in-human study (NCT04178902): pharmacokinetics
# Assay type: in vivo
# measurement context: human, in vivo, 0.53 mg/kg, Cycle 1 Day 15, DOSE_MGKG 0.53, cohort 3, PKTIME 24.5; read-out: CONC_NGML
measured parameter: concentration at […] (ng/mL)
The figure you give is taken to be in ng/mL; do not add the unit.

# molecule Cc1c(Cl)c2c(Cl)c(C)c1-c1c(-c3ccc(F)cc3)sc3ncnc(c13)O[C@@H](C(=O)O)Cc1cc(ccc1OCc1ccnc(-c3ccc(OC[C@H]4COCCO4)cc3)n1)OC[C@@H](CN1CCN(C)CC1)O2 ; its concentration at […] = 0

====

# tested system: off-target receptors, ion channels, and transporters (Homo sapiens)
# Sequence (Q9UKP6 1-389): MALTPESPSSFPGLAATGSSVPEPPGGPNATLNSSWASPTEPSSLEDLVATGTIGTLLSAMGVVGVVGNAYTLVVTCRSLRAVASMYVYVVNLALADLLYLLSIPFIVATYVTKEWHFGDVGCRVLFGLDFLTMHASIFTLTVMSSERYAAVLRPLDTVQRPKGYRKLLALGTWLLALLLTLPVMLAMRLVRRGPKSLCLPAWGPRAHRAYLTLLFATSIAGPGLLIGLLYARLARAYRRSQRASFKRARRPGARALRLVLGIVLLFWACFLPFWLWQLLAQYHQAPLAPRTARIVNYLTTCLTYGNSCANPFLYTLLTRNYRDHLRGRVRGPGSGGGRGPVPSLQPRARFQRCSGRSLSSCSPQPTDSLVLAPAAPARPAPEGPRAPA
# assay procedure: Off-target profiling (Supplementary Data 1)
# measurement context: read-out: Urotensin-II (UT1) Human (Functional - Antagonist Effect) - IC50; CEREP
pIC50: −log10 of the molar value.
measured parameter: pIC50

compound Cc1c(Cl)c2c(Cl)c(C)c1-c1c(-c3ccc(F)cc3)sc3ncnc(c13)O[C@@H](C(=O)O)Cc1cc(ccc1OCc1ccnc(-c3ccc(OC[C@H]4COCCO4)cc3)n1)OC[C@@H](CN1CCN(C)CC1)O2 , pIC50 observed: < 4.52

====

# tested system: off-target receptors, ion channels, and transporters (Homo sapiens, UniProt P05771)
# Sequence (P05771 2-671): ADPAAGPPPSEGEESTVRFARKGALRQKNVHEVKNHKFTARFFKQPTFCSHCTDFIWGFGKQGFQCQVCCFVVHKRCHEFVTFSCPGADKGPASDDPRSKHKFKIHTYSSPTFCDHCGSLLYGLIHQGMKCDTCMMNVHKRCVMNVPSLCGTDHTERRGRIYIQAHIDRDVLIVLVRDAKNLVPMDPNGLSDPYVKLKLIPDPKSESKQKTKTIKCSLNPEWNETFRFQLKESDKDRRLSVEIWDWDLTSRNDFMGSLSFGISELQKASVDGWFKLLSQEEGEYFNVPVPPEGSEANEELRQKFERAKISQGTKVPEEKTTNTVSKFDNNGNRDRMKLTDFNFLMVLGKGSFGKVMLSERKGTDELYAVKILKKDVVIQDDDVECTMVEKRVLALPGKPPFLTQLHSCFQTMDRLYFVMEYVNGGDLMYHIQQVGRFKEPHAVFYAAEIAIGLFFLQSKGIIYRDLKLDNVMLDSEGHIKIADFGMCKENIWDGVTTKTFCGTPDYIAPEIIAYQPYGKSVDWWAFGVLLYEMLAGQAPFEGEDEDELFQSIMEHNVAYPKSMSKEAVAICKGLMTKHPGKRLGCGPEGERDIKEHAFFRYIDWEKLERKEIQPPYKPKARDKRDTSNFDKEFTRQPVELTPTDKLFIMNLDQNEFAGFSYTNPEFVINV
pIC50: −log10 of the molar value.
measured parameter: pIC50

pIC50 measured on Cc1c(Cl)c2c(Cl)c(C)c1-c1c(-c3ccc(F)cc3)sc3ncnc(c13)O[C@@H](C(=O)O)Cc1cc(ccc1OCc1ccnc(-c3ccc(OC[C@H]4COCCO4)cc3)n1)OC[C@@H](CN1CCN(C)CC1)O2 = < 5.00

====

# assay procedure: Phase 1 first-in-human study (NCT04178902): pharmacokinetics
# Format: in vivo
# measurement context: human, in vivo, 0.32 mg/kg, Cycle 1 Day 15, DOSE_MGKG 0.32, cohort 2, PKTIME 24.5; read-out: CONC_NGML
measured parameter: concentration at […] (ng/mL)
# unit: ng/mL | format: bare number

In plain terms, Cc1c(Cl)c2c(Cl)c(C)c1-c1c(-c3ccc(F)cc3)sc3ncnc(c13)O[C@@H](C(=O)O)Cc1cc(ccc1OCc1ccnc(-c3ccc(OC[C@H]4COCCO4)cc3)n1)OC[C@@H](CN1CCN(C)CC1)O2 [ABBV-467] has a documented concentration at […] of 0

====

# tested system: BCL-W (Homo sapiens, UniProt Q92843)
# Sequence (Q92843 whole entry): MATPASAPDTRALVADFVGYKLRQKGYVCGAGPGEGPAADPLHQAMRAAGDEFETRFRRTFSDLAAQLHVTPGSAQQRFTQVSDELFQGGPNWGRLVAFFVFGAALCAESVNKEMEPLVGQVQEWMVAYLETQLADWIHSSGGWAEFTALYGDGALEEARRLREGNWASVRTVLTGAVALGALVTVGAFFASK
# assay procedure: Time-resolved FRET binding assay
# measurement context: TR-FRET, individual determinations; read-out: Individual Ki, BCL-W
pKi: −log10 of the molar value.
measured parameter: pKi

- compound: "COc1ccccc1-c1nccc(COc2ccccc2CC(Oc2ncnc3sc(-c4ccc(F)cc4)c(-c4ccc(OCCN5CCN(C)CC5)c(Cl)c4C)c23)C(=O)O)n1 (centres unmarked) [Compound 1, reference compound]"
  pKi: "< 6.33"

For record Cc1c(Cl)c2c(Cl)c(C)c1-c1c(-c3ccc(F)cc3)sc3ncnc(c13)O[C@@H](C(=O)O)Cc1cc(ccc1OCc1ccnc(-c3ccc(OC[C@H]4COCCO4)cc3)n1)OC[C@@H](CN1CCN(C)CC1)O2 [ABBV-467] the listed pKi is < 6.61
